- Tested on: D-aminoacylase derived from Amycolatopsis orientalis IFO 12806
- assayName: Substrate specificity of D-aminoacylase
- Type: biochemical
- conditionInfo: 20 mM substrate, pH 7.5, 30° C., 3 h
property: Action of the enzyme on the substrate

[[record]]
molecule = "CC(=O)N[C@H](Cc1c[nH]c2ccccc12)C(=O)O [N-acetyl-D-tryptophan]"
property = "Action of the enzyme on the substrate"
observed = "acted somewhat"

[[record]]
molecule = "CC(=O)N[C@@H](CC(C)C)C(=O)O [N-acetyl-L-leucine]"
property = "Action of the enzyme on the substrate"
observed = "did not act"

[[record]]
molecule = "CC(=O)N[C@H](C)C(=O)O [N-acetyl-D-alanine]"
property = "Action of the enzyme on the substrate"
observed = "acted somewhat"

[[record]]
molecule = "CSCC[C@H](NC(C)=O)C(=O)O [N-acetyl-L-methionine]"
property = "Action of the enzyme on the substrate"
observed = "did not act"

